# pIC50 annotations
Test target: Thermolysin (Bacillus thermoproteolyticus)
Sequence (P00800 whole entry): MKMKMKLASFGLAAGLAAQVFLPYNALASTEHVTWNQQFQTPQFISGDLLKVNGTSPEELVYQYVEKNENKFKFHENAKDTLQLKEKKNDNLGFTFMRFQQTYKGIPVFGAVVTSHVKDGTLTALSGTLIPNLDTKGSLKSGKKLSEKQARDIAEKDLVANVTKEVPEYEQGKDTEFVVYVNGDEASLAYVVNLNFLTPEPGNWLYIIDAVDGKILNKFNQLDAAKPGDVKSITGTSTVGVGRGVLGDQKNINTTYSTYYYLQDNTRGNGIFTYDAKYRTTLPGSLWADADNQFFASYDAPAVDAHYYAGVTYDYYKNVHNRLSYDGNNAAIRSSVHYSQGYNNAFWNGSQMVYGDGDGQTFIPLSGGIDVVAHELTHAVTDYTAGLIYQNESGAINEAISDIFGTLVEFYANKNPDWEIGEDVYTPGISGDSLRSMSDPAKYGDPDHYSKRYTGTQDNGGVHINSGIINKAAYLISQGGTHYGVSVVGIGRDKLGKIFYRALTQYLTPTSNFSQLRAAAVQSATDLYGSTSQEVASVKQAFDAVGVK
pIC50: −log10 of the molar value.

Smiles input	Inequality operator	pIC50
O=C1N[C@H](C(=O)O)CCCCCc2cccc(c2)C[C@H]1CS	<	5.00
O=C1N[C@H](C(=O)O)CCCCCCc2ccccc2C[C@@H]1CS	=	5.74

* * *

# IC50 per entry for Angiotensin-converting enzyme (Homo sapiens, UniProt P12821)

Smiles input	IC50
O=C1N[C@H](C(=O)O)CCCCc2ccccc2C[C@@H]1CS	> 10 µM
O=C1N[C@H](C(=O)O)CCCCc2ccccc2C[C@H]1CS	> 10 µM
O=C1N[C@H](C(=O)O)CCCCCCc2ccccc2C[C@H]1CS	> 10 µM

Just for reference, ChEMBL document CHEMBL1129939 is where these values come from.
